I'd be grateful if you could share measured ΔTm at 100 µM for these entries.
# measuredOn: hsTEAD2 (217-447) (Homo sapiens (Human))
# Sequence (Q15562 217-447): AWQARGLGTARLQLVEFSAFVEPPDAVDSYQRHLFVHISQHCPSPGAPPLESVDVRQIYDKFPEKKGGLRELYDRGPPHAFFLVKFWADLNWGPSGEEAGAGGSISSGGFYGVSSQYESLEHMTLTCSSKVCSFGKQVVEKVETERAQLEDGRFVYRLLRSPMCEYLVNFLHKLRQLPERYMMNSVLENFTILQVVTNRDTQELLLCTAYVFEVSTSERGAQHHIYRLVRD
# protocolText: Thermal shift measurement / Differential Scanning Fluorimetry (DSF)
# Format: binding
# conditionContext: 100 uM compound, 2 hours at 4° C., triplicates; read-out: ΔTm TEAD2 (217-447)
Numbers only, in °C.

molecule	measuredProperty	reading
Cc1ncsc1-c1ccc(CNC(=O)[C@H]2C[C@H](O)CN2C(=O)[C@H](NC(=O)COCCOCCOCCOCCOCCNC(=O)c2ccc3c(c2)c2cn(C)nc2n3-c2ccc(C(F)(F)F)cc2)C(C)(C)C)cc1	ΔTm at 100 µM	0.3

Provide ΔTm at 100 µM for all items below, preserving their order.
1. Cn1cc2c3cc(C(=O)NCCOCCOCCNC(=O)COCCOCCOCC(=O)Nc4cccc5c4C(=O)N(C4CCC(=O)NC4=O)C5=O)ccc3n(-c3ccc(C(F)(F)F)cc3)c2n1 (centres unmarked)
2. Cn1cc2c3cc(C(=O)NCCOCCOCCNC(=O)COc4cccc5c4C(=O)N(C4CCC(=O)NC4=O)C5=O)ccc3n(-c3ccc(C(F)(F)F)cc3)c2n1 (centres unmarked)
3. Cn1cc2c3cc(C(=O)NCCOCCOCCNC(=O)COCCOCCOCCOCCOCC(=O)Nc4cccc5c4C(=O)N(C4CCC(=O)NC4=O)C5=O)ccc3n(-c3ccc(C(F)(F)F)cc3)c2n1 (centres unmarked)
4. Cc1ncsc1-c1ccc(CNC(=O)[C@@H]2C[C@@H](O)CN2C(=O)[C@@H](NC(=O)CCCCCC(=O)NCCOCCOCCNC(=O)c2ccc3c(c2)c2cn(C)nc2n3-c2ccc(C(F)(F)F)cc2)C(C)(C)C)cc1

Result:
1: 0.7; 2: -0.1; 3: 0; 4: 1
